These data points were gathered from ChEMBL document CHEMBL1154382.

For each entry below, report its growth, % of control at 10 µM value.
Test system: HCT-15
Test: Antiproliferative activity against human HCT15 cells at 10 uM assessed as cell growth inhibition relative to control
Type: functional
Conditions: values are per cent of control
The reply should contain only the number, in %.

growth, % of control at 10 µM measured on CCOC(=O)C[C@H]1[C@@H](O[Si](C)(C)C(C)(C)C)[C@H](n2cnc3c(NC(=O)Nc4ccccc4)ncnc32)O[C@@H]1CN=[N+]=[N-] = 84

Query CCOC(=O)C[C@H]1[C@@H](O[Si](C)(C)C(C)(C)C)[C@H](n2cnc3c(N)ncnc32)O[C@@H]1COC(=O)NC yields growth, % of control at 10 µM of 87

Entry CCOC(=O)C=C1[C@@H](O[Si](C)(C)C(C)(C)C)[C@H](n2cnc3c(N)ncnc32)O[C@@H]1CNC(=O)NC — recorded growth, % of control at 10 µM = 90

What the record says about CCOC(=O)C[C@H]1[C@@H](O[Si](C)(C)C(C)(C)C)[C@H](n2cnc3c(NC(=O)Nc4ccccc4)ncnc32)O[C@@H]1COC(=O)NC : growth, % of control at 10 µM is 52

----------
System: HCT-15
Assay: Antiproliferative activity against human HCT15 cells at 10 uM assessed as cell growth inhibition relative to control
Type: functional
Details: values are per cent of control
measurement.kind: growth, % of control at 10 µM (%)
Kindly answer with a numeric value in %, unit omitted.

Simply: CCOC(=O)C[C@H]1[C@@H](O[Si](C)(C)C(C)(C)C)[C@H](n2cnc3c(N)ncnc32)O[C@@H]1CNC(=O)NC , HCT-15, growth, % of control at 10 µM = 97

Kindly note: HCT-15, CNC(=O)NC[C@H]1O[C@@H](n2cnc3c(NC(=O)Nc4ccccc4)ncnc32)[C@H](O[Si](C)(C)C(C)(C)C)[C@@H]1O[Si](C)(C)C(C)(C)C , growth, % of control at 10 µM value reported: 21

Entry CCOC(=O)C[C@H]1[C@@H](O[Si](C)(C)C(C)(C)C)[C@H](n2cnc3c(N)ncnc32)O[C@@H]1CO , tested on HCT-15, has a reported growth, % of control at 10 µM of 91

----------
System: SK-MEL-28
Assay: Antiproliferative activity against human SK-MEL-28 cells at 10 uM assessed as cell growth inhibition relative to control
Format: functional
Settings: values are per cent of control
Please respond with reported growth, % of control at 10 µM for every item in the list.
Numeric only. Scale: %

Lab note: CCOC(=O)C[C@H]1[C@@H](O[Si](C)(C)C(C)(C)C)[C@H](n2cnc3c(N)ncnc32)O[C@@H]1CO gave growth, % of control at 10 µM of 112

Given item CCOC(=O)C[C@H]1[C@@H](O[Si](C)(C)C(C)(C)C)[C@H](n2cnc3c(NC(=O)Nc4ccccc4)ncnc32)O[C@@H]1CN=[N+]=[N-] , the value recorded as its growth, % of control at 10 µM is 116

Entry CCOC(=O)C[C@H]1[C@@H](O[Si](C)(C)C(C)(C)C)[C@H](n2cnc3c(N)ncnc32)O[C@@H]1COC(=O)NC , growth, % of control at 10 µM reported as 106

Looking up CNC(=O)NC[C@H]1O[C@@H](n2cnc3c(NC(=O)Nc4ccccc4)ncnc32)[C@H](O[Si](C)(C)C(C)(C)C)[C@@H]1O[Si](C)(C)C(C)(C)C , I found its growth, % of control at 10 µM recorded as 60

GET /value?item= CCOC(=O)C[C@H]1[C@@H](O[Si](C)(C)C(C)(C)C)[C@H](n2cnc3c(N)ncnc32)O[C@@H]1CNC(=O)NC &field=growth, % of control at 10 µM returns 107

The molecule listed as CCOC(=O)C=C1[C@@H](O[Si](C)(C)C(C)(C)C)[C@H](n2cnc3c(N)ncnc32)O[C@@H]1CNC(=O)NC has a reported growth, % of control at 10 µM of 111

# growth, % of control at 10 µM of CCOC(=O)C[C@H]1[C@@H](O[Si](C)(C)C(C)(C)C)[C@H](n2cnc3c(NC(=O)Nc4ccccc4)ncnc32)O[C@@H]1COC(=O)NC = 72

----------
Tested on: LOX IMVI
Test: Antiproliferative activity against human LOXIMVI cells at 10 uM assessed as cell growth inhibition relative to control
Assay type: functional
Conditions: values are per cent of control
Answer each item with its documented growth, % of control at 10 µM.
All answers are understood in %, so give the number only.

The reported value for CCOC(=O)C[C@H]1[C@@H](O[Si](C)(C)C(C)(C)C)[C@H](n2cnc3c(N)ncnc32)O[C@@H]1CO in terms of growth, % of control at 10 µM is 92

Reported growth, % of control at 10 µM for CCOC(=O)C[C@H]1[C@@H](O[Si](C)(C)C(C)(C)C)[C@H](n2cnc3c(N)ncnc32)O[C@@H]1COC(=O)NC was 88

Lab note: CCOC(=O)C[C@H]1[C@@H](O[Si](C)(C)C(C)(C)C)[C@H](n2cnc3c(N)ncnc32)O[C@@H]1CNC(=O)NC gave growth, % of control at 10 µM of 92

Form field growth, % of control at 10 µM, entry CNC(=O)NC[C@H]1O[C@@H](n2cnc3c(NC(=O)Nc4ccccc4)ncnc32)[C@H](O[Si](C)(C)C(C)(C)C)[C@@H]1O[Si](C)(C)C(C)(C)C : 13

// growth, % of control at 10 µM value for CCOC(=O)C[C@H]1[C@@H](O[Si](C)(C)C(C)(C)C)[C@H](n2cnc3c(NC(=O)Nc4ccccc4)ncnc32)O[C@@H]1CN=[N+]=[N-] : 96

The compound CCOC(=O)C=C1[C@@H](O[Si](C)(C)C(C)(C)C)[C@H](n2cnc3c(N)ncnc32)O[C@@H]1CNC(=O)NC showed growth, % of control at 10 µM equal to 74

For reference, reported growth, % of control at 10 µM for CCOC(=O)C[C@H]1[C@@H](O[Si](C)(C)C(C)(C)C)[C@H](n2cnc3c(NC(=O)Nc4ccccc4)ncnc32)O[C@@H]1COC(=O)NC stands at 49

----------
Tested on: OVCAR-3
Experiment: Antiproliferative activity against human OVCAR-3 cells at 10 uM assessed as cell growth inhibition relative to control
Assay type: functional
Conditions: values are per cent of control
Criterion: growth, % of control at 10 µM strictly less than 60%. Met: Satisfied. Not met: Not satisfied.

Query: Please determine if CCOC(=O)C[C@H]1[C@@H](O[Si](C)(C)C(C)(C)C)[C@H](n2cnc3c(N)ncnc32)O[C@@H]1CNC(=O)NC is below 60% in terms of growth, % of control at 10 µM.
Reply: Not satisfied

Query: hey, is growth, % of control at 10 µM for CCOC(=O)C=C1[C@@H](O[Si](C)(C)C(C)(C)C)[C@H](n2cnc3c(N)ncnc32)O[C@@H]1CNC(=O)NC lower than 60% or not?
Reply: Not satisfied

Query: # TODO verify growth, % of control at 10 µM < 60% strictly for this compound: CNC(=O)NC[C@H]1O[C@@H](n2cnc3c(NC(=O)Nc4ccccc4)ncnc32)[C@H](O[Si](C)(C)C(C)(C)C)[C@@H]1O[Si](C)(C)C(C)(C)C
Reply: Satisfied

Query: Is it true that growth, % of control at 10 µM reported for CCOC(=O)C[C@H]1[C@@H](O[Si](C)(C)C(C)(C)C)[C@H](n2cnc3c(N)ncnc32)O[C@@H]1COC(=O)NC is less than 60%?
Reply: Not satisfied

Query: Could you please tell me whether growth, % of control at 10 µM recorded for CCOC(=O)C[C@H]1[C@@H](O[Si](C)(C)C(C)(C)C)[C@H](n2cnc3c(N)ncnc32)O[C@@H]1CO is less than 60%?
Reply: Not satisfied

Query: Regarding CCOC(=O)C[C@H]1[C@@H](O[Si](C)(C)C(C)(C)C)[C@H](n2cnc3c(NC(=O)Nc4ccccc4)ncnc32)O[C@@H]1COC(=O)NC , kindly confirm whether its growth, % of control at 10 µM is beneath 60%.
Reply: Satisfied

Query: Strictly below 60%: is that where growth, % of control at 10 µM of CCOC(=O)C[C@H]1[C@@H](O[Si](C)(C)C(C)(C)C)[C@H](n2cnc3c(NC(=O)Nc4ccccc4)ncnc32)O[C@@H]1CN=[N+]=[N-] sits?
Reply: Not satisfied

----------
Tested on: IGROV-1
Assay: Antiproliferative activity against human IGROV1 cells at 10 uM assessed as cell growth inhibition relative to control
Type: functional
The source made the active and inactive calls. No cut-off for these calls is given here.

>  <compound.string>
CNC(=O)NC[C@H]1O[C@@H](n2cnc3c(NC(=O)Nc4ccccc4)ncnc32)[C@H](O)[C@@H]1O

>  <growth inhibition (GI)>
inactive

$$$$
>  <compound.string>
CNC(=O)NC[C@H]1O[C@@H](n2cnc3c(NC(=O)Nc4ccccc4)ncnc32)[C@@H]2OC(=O)C[C@@H]21

>  <growth inhibition (GI)>
inactive

$$$$
>  <compound.string>
[N-]=[N+]=NC[C@H]1O[C@@H](n2cnc3c(NC(=O)Nc4ccccc4)ncnc32)[C@@H]2OC(=O)C[C@@H]21

>  <growth inhibition (GI)>
inactive

$$$$
>  <compound.string>
CNC(=O)NC[C@H]1O[C@@H](n2cnc3c(NC(=O)Nc4ccccc4)ncnc32)[C@@H]2OC(C)(C)O[C@@H]21

>  <growth inhibition (GI)>
inactive

$$$$
